- Assay Target: Methionine aminopeptidase (Escherichia coli K-12)
- Test Summary: Inhibitory activity against Co(II) form of Escherichia coli MetAP
Readout Name: pIC50
Answers are plain numbers, as −log10 of the molar value.

Worked cases, answers included:
Chemical Structure: O=Cc1ccccc1-c1ccc(C(=O)O)o1
pIC50: 4.08
--
Chemical Structure: O=C(O)c1ccc(-c2ccccc2O)o1
pIC50: 3.90
--
Chemical Structure: Cc1cccc(-c2ccc(C(=O)O)o2)c1Cl
pIC50: 3.73
--
Chemical Structure: Nc1ccccc1-c1ccc(C(=O)O)o1
pIC50: 4.25
--
Chemical Structure: N#CCc1ccc(-c2ccccc2Cl)o1
pIC50: 4.24

Hi there! I need pIC50 for each item below, if you can.
1. O=C(O)c1ccc(-c2ccccc2C(F)(F)F)o1
2. OCc1ccc(-c2ccccc2Cl)o1
3. O=C(O)c1ccc(-c2ccccc2CO)o1
4. O=C(O)c1ccc(-c2cc([N+](=O)[O-])ccc2Cl)o1

Response given:
4.00
4.07
3.72
4.35

I need pIC50 for every entry listed below, if you could help.
1. O=C(O)c1ccc(Cc2ccc(Cl)cc2)o1
2. O=C(NO)c1ccc(Cc2ccccc2Cl)o1
3. NNC(=O)c1ccc(-c2ccccc2Cl)o1

Response given:
[4.04, 3.92, 4.11]

----------
Assignment: determine reported IC50 for the given molecules.
- Assay Target: Methionine aminopeptidase (Escherichia coli K-12, UniProt P0AE18)
- Sequence (P0AE18 whole entry): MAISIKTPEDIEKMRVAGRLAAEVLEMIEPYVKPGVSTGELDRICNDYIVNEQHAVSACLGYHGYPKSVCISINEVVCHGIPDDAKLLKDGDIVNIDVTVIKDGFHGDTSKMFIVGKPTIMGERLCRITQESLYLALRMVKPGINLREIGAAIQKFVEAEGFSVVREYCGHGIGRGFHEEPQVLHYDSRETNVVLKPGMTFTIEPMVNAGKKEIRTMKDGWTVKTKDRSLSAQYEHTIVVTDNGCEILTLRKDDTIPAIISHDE
- Test Summary: Inhibitory activity against Fe(II) form of Escherichia coli MetAP
One number for each entry, in µM.

Chemical Structure: NNC(=O)c1ccc(-c2ccccc2Cl)o1
IC50 [µM]: 58
//
Chemical Structure: Cc1cc([N+](=O)[O-])ccc1-c1ccc(C(=O)O)o1
IC50 [µM]: 150

Challenge: // query IC50 value for entry C=CCCOc1ccccc1-c1ccc(C(=O)O)o1
Response given: 111

----------
- Assay Target: Methionine aminopeptidase (Escherichia coli K-12, UniProt P0AE18)
- Test Summary: Inhibitory activity against Fe(II) form of Escherichia coli MetAP
So basically, if IC50 comes in under 100 µM it's label 1, and if it's 100 µM or more it's label 0.

Challenge: State whether 100 µM exceeds IC50 recorded for C#CCOc1ccccc1-c1ccc(C(=O)O)o1 .
Response given: label 0

Challenge: Record O=C(O)c1ccc(-c2cc([N+](=O)[O-])ccc2Cl)o1 : is its IC50 strictly below 100 µM?
Response given: label 1

Challenge: Confirm or reject: IC50 of COC(=O)c1ccc(-c2ccccc2Cl)o1 lies strictly below 100 µM
Response given: label 0

Challenge: Is IC50 strictly under 100 µM for the entry CONC(=O)c1ccc(-c2ccccc2Cl)o1 ?
Response given: label 0

Challenge: # check: IC50 < 100 µM for COc1ccc([N+](=O)[O-])cc1-c1ccc(C(=O)O)o1
Response given: label 1

Challenge: I wonder whether Nc1ccccc1-c1ccc(C(=O)O)o1 has IC50 below 100 µM. Can you tell?
Response given: label 1

Challenge: Below 100 µM on IC50? Entry COCCOc1ccccc1-c1ccc(C(=O)O)o1
Response given: label 0

Challenge: Confirm or reject: IC50 of O=C(O)c1ccc(-c2ccccc2C(=O)O)o1 lies strictly below 100 µM
Response given: label 0

Challenge: API: query returns whether the compound falls strictly under 100 µM in IC50. Query: O=C(O)c1ccc(-c2ccccc2)o1
Response given: label 0

----------
- Assay Target: Methionine aminopeptidase (Escherichia coli K-12, UniProt P0AE18)
- Test Summary: Inhibitory activity against Ni(II) form of Escherichia coli MetAP
Kindly apply the following: Criterion met if IC50 is less than 100 µM, Criterion not met in every other case.

Chemical Structure: COC(=O)c1ccc(-c2ccccc2Cl)o1
Classification: Criterion not met

Challenge: Does the reported IC50 of the following molecule sit strictly below 100 µM? CCOc1ccccc1-c1ccc(C(=O)O)o1
Response given: Criterion not met

Challenge: Criterion: IC50 strictly below 100 µM. Is it met by COCCOc1ccccc1-c1ccc(C(=O)O)o1 ?
Response given: Criterion not met

Challenge: Confirm or reject: IC50 of C#CCOc1ccccc1-c1ccc(C(=O)O)o1 lies strictly below 100 µM
Response given: Criterion not met

Challenge: Is IC50 of Cc1cccc(-c2ccc(C(=O)O)o2)c1Cl strictly below 100 µM?
Response given: Criterion not met

Challenge: Bench note: check whether O=C(O)c1ccc(-c2cccc(Cl)c2)o1 shows IC50 below 100 µM
Response given: Criterion not met

Challenge: Given Nc1ccccc1-c1ccc(C(=O)O)o1 , is recorded IC50 strictly lower than 100 µM?
Response given: Criterion met

Challenge: Decide: IC50 of NC(=O)c1ccc(-c2ccccc2Cl)o1 strictly below 100 µM?
Response given: Criterion not met

----------
- Assay Target: Methionine aminopeptidase (Escherichia coli K-12)
- Test Summary: Inhibitory activity against Co(II) form of Escherichia coli MetAP
Readout Name: pIC50
Numbers only, as −log10 of the molar value.

Chemical Structure: O=C(O)c1ccc(-c2ccccc2CF)o1
Readout Name: pIC50
Numeric Value: 4.26

Below are some compounds; for each one, tell me its pIC50.
1. O=C(O)c1ccc(-c2cc([N+](=O)[O-])ccc2F)o1
2. O=C(O)c1ccc(-c2ccccc2)o1

Response given:
[3.80, 3.73]

----------
- Assay Target: Methionine aminopeptidase (Escherichia coli K-12, UniProt P0AE18)
- Test Summary: Inhibitory activity against Mn(II) form of Escherichia coli MetAP
Criterion: IC50 strictly under 3 µM. Met: class 1. Not met: class 0.

The examples below pair each entry with its known result.
Chemical Structure: O=C(O)c1ccc(-c2cccc(Cl)c2)o1
Classification: class 0

Chemical Structure: O=C(NO)c1ccc(Cc2ccccc2Cl)o1
Classification: class 0

Chemical Structure: O=C(O)c1ccc(-c2ccccc2[N+](=O)[O-])o1
Classification: class 1

Chemical Structure: NC(=O)c1ccc(-c2ccccc2Cl)o1
Classification: class 0

Challenge: Lab note: IC50 threshold 3 µM. Does this compound come in strictly under it? CONC(=O)c1ccc(-c2ccccc2Cl)o1
Response given: class 0

Challenge: Is the reported IC50 for O=C(O)c1ccc(-c2ccccc2O)o1 strictly below 3 µM?
Response given: class 0

Challenge: Please indicate whether the reported IC50 of O=C(O)Cc1ccc(Cc2ccccc2Cl)o1 is strictly below 3 µM.
Response given: class 1

Challenge: Just wondering, is IC50 of O=C(O)c1ccc(-c2cc([N+](=O)[O-])ccc2Cl)o1 below 3 µM?
Response given: class 1

Challenge: Quick check: IC50 of O=C(O)c1ccc(-c2ccccc2)o1 under 3 µM?
Response given: class 0

Challenge: I wonder whether O=C(O)c1ccc(-c2ccccc2C(F)(F)F)o1 has IC50 below 3 µM. Can you tell?
Response given: class 1

Challenge: Field: below-cutoff. Rule: recorded IC50 strictly less than 3 µM. Subject: COCCOc1ccccc1-c1ccc(C(=O)O)o1
Response given: class 0

Challenge: Decide: IC50 of N#CCc1ccc(-c2ccccc2Cl)o1 strictly below 3 µM?
Response given: class 0

Challenge: Quick check: does COC(=O)c1ccc(-c2ccccc2Cl)o1 have IC50 under 3 µM?
Response given: class 0

Challenge: Please let me know if O=C(O)c1ccc(-c2ccccc2F)o1 shows IC50 below 3 µM.
Response given: class 0

Challenge: Find out if reported IC50 for Cc1cc([N+](=O)[O-])ccc1-c1ccc(C(=O)O)o1 is less than 3 µM
Response given: class 1

Challenge: Strictly below 3 µM in IC50? O=C(O)c1ccc(-c2ccc(Cl)cc2)o1
Response given: class 0

Challenge: Dear reviewer, please state whether O=C(O)c1ccc(Cc2ccccc2)o1 has IC50 strictly beneath 3 µM.
Response given: class 0

----------
For each record, write down the corresponding pIC50.
- Assay Target: Methionine aminopeptidase (Escherichia coli K-12)
- Test Summary: Inhibitory activity against Fe(II) form of Escherichia coli MetAP
pIC50: −log10 of the molar value.

Example entries begin here.
Chemical Structure: CCOc1ccccc1-c1ccc(C(=O)O)o1
pIC50: < 3.70

Chemical Structure: O=C(O)c1ccc(-c2ccccc2CO)o1
pIC50: < 3.70

Challenge: Param item = O=C(O)c1ccc(-c2cccc(Cl)c2)o1 ; retrieve measured pIC50.
Response given: < 3.70

----------
- Assay Target: Methionine aminopeptidase (Escherichia coli K-12)
- Test Summary: Inhibitory activity against Fe(II) form of Escherichia coli MetAP
Readout Name: pIC50
Answers are plain numbers, as −log10 of the molar value.

Take a look at these entries with their results.
Chemical Structure: N#CCc1ccc(-c2ccccc2Cl)o1
Numeric Value: 4.01
--
Chemical Structure: O=C(O)c1ccc(Cc2ccccc2)o1
Numeric Value: 4.47
--
Chemical Structure: O=C(O)c1ccc(Cc2ccc(Cl)cc2)o1
Numeric Value: 3.86
--
Chemical Structure: O=C(NO)c1ccc(-c2ccccc2Cl)o1
Numeric Value: 6.10
--
Chemical Structure: O=C(NO)c1ccc(Cc2ccccc2Cl)o1
Numeric Value: 3.91

Take each entry in turn and give its pIC50.
1. O=C(O)c1ccc(Cc2ccccc2Cl)o1
2. O=C(O)c1ccc(-c2ccccc2C(F)(F)F)o1
3. O=C(O)Cc1ccc(Cc2ccccc2Cl)o1
4. O=C(O)c1ccc(-c2ccccc2CF)o1
5. O=Cc1ccccc1-c1ccc(C(=O)O)o1
6. O=C(O)c1ccc(-c2ccccc2O)o1

Response given:
1: 3.70; 2: 3.80; 3: 3.75; 4: 4.07; 5: 4.16; 6: 3.72

Data origin, for the record: ChEMBL document CHEMBL1141959
